system: PD1-ss+10aa/Gaussia Luciferase; assay: Dox-Induced PD1-ss-Gluc Assay; format: cell-based; conditions: 24 hr doxycycline induction, 293FRT/TO cells, Gaussia luciferase signal; read-out: 24 hr Dox Inducible PD1ssGluc 293FRT/TO: Mean IC50
pIC50 values, listed per item
On this scale, pIC50 is minus log10 of a concentration expressed in M (mol/L).

Solved cases below.
Ask | # pIC50 lookup, item `O=C(Nc1nc(CCc2ccccc2Cl)cs1)c1cccn1Cc1ccncc1`
Reply | 6.82

Ask | Let us now turn to `O=C(Nc1nc([C@@H]2CCCN2Cc2ccccc2)cs1)c1cccn1Cc1ccncc1`
Reply | 6.49

Ask | Check `O=C(Nc1nc(/C=C/Cc2ccccc2)cs1)c1cccn1CCCc1ccncc1` too.
Reply | 6.61

Ask | Check `COc1ccccc1/C=C/c1csc(NC(=O)c2cccn2Cc2ccncc2)n1` too.
Reply | 6.53

Ask | Consider next the compound `O=C(Nc1nc([C@H]2C[C@@H]2c2ccccc2)cs1)c1cccn1Cc1ccncc1` in the same way.
Reply | 6.55

Ask | // query: `COc1cccc(CCc2csc(NC(=O)c3cccn3Cc3ccncc3)n2)c1`
Reply | 6.57

Others:
Ask | I'd like to know its pIC50. The compound in question is `O=C(Nc1nc(/C=C/c2ccc(OC3CC3)cc2)cs1)c1cccn1Cc1ccncc1`
Reply | 7.42

Ask | Query `O=C(Nc1nc2ccsc2s1)c1cccn1Cc1ccncc1` next
Reply | 5.81

Ask | Also need `CC(C)(OCC1CCOCC1)c1csc(NC(=O)c2cccn2Cc2ccncc2)n1` , thanks.
Reply | 6.07

Ask | Now consider `CC(C)OC(C)(C)c1csc(NC(=O)c2cccn2CCOc2ccncc2)n1` and answer again.
Reply | 6.52

Ask | Query `O=C(Nc1nc([C@H]2CCCN2Cc2ccccc2)cs1)c1cccn1Cc1ccncc1` next
Reply | 6.27

Ask | Continue with `Cc1nc(NC(=O)c2cccn2Cc2ccncc2)sc1F`
Reply | 6.03

Ask | Okay, and `O=C(Nc1nc(-c2ccccc2)cs1)c1cccn1Cc1ccncc1` ?
Reply | 6.50

Ask | Also O=C(Nc1nc(C2CC2c2ccccc2)cs1)c1cccn1CCCc1ccncc1 (stereo not drawn) , if possible.
Reply | 6.35

Ask | Same read-out for CC(/C=C/c1csc(NC(=O)c2cccn2Cc2ccncc2)n1)c1ccccc1 (stereo not drawn) ?
Reply | 6.90

Ask | What do you get for `O=C(Nc1nc(C2CCN(c3ccccc3)CC2)cs1)c1cccn1Cc1ccncc1` ?
Reply | 6.49

Ask | Try the compound O=C(Nc1nc(C2=CCC(c3ccccc3)CC2)cs1)c1cccn1Cc1ccncc1 (stereo not drawn)
Reply | 6.79

* * *

Tested on: IL-2-FL/Gaussia Luciferase
Assay: Dox Induced IL2-FL-Gluc Assay
Assay type: cell-based
Settings: 24 hr, doxycycline-induced, 293FRT/TO cells; read-out: 24 hr Dox Inducible IL2FLGIuc 293FRT/TO: Mean IC50
Protocol: Transfected cells were selected for resistance to the selectable markers Hygromycin and Blasticidin to create a stable cell line that contained the IL-2-FL/Gaussia Luciferase cDNA insert whose expression was regulated under the T-RExTM system. The day before assay, cells were trypsinized and plated in 384-well tissue culture plates. The next day, compound dilutions in DMSO/media containing doxycycline were added to the wells and incubated at 37° C., 5% CO2. […]
Listed below: log10(IC50) values for each entry.
Kindly note that the scale is log10 and the underlying IC50 is in µM.

Ask | // query log10(IC50) value for entry CO[C@H]1CCN(c2ccccc2)[C@H]1c1csc(NC(=O)c2cccn2Cc2ccncc2)n1 [Compound A334]
Reply | -0.96

Ask | Record: O=C(Nc1nc([C@H]2C[C@@H](O)CN2c2ccccc2)cs1)c1cccn1Cc1ccncc1 [Compound A321]
Reply | -0.02

Ask | Also check O=C(Nc1nc([C@H]2C[C@@H](OC3CCCCC3)CN2c2ccccc2)cs1)c1cccn1Cc1ccncc1 [Compound A354]
Reply | -1.68

Ask | Do the same for Cc1cccc(/C=C\c2csc(NC(=O)c3cccn3Cc3ccncc3)n2)n1 [Compound A355] please
Reply | 1.05

Ask | Same again, this time with O=C(Nc1nc(C2=CC(c3ccccc3)CCC2)cs1)c1cccn1Cc1ccncc1 (centres unmarked) [Compound A294]
Reply | -0.03
